// cross-source set; read-out = IC50; system = ROCK2 (Homo sapiens)

Given the entry COc1cccc(C(CO)N2CCN(c3ccc(-c4cn[nH]c4)c(F)c3)C2=O)c1 (stereo not shown) , what IC50 was observed with ROCK2 (Homo sapiens)?
2.1 to 20 nM

Given the entry Cn1cc(C(=O)Nc2cccc(-c3cc(Nc4ccc5[nH]ncc5c4Cl)no3)c2)cn1 , what IC50 was observed with ROCK2 (Homo sapiens)?
< 300 nM

Given the entry O=C(NC1CC2(C1)CC(c1n[nH]c(=O)c3ccccc13)C2)c1ccnn1CCC(F)(F)F (stereo not shown) , what IC50 was observed with ROCK2 (Homo sapiens)?
15.1 to 100 nM

Given the entry O=C(Nc1cccc(CN2CCC(Nc3cccc4cnccc34)CC2)c1)c1ccc(C(=O)OCC2CCCO2)cc1 (stereo not shown) , what IC50 was observed with ROCK2 (Homo sapiens)?
< 100 nM

Given the entry O=C(NC1CC2(C1)CC(c1n[nH]c(=O)c3ccccc13)C2)c1ccnn1C(F)F (stereo not shown) , what IC50 was observed with ROCK2 (Homo sapiens)?
15.1 to 100 nM

Given the entry O=C1CN(c2ccc(-c3cn[nH]c3)cc2)C(=O)N1CCc1ccccc1 , what IC50 was observed with ROCK2 (Homo sapiens)?
20.1 to 200 nM

Given the entry Cn1cc(C(=O)Nc2cccc(-n3nc(Nc4ccc5[nH]ncc5c4Cl)c4ncccc43)c2)cn1 , what IC50 was observed with ROCK2 (Homo sapiens)?
< 300 nM

###

// cross-source set; read-out = IC50; system = ROCK2 (Homo sapiens)

Given the entry NC(=O)c1cccnc1OC1CC2(CC(Nc3ncc4cc(Br)ccc4n3)C2)C1 (stereo not shown) , what IC50 was observed with ROCK2 (Homo sapiens)?
192 nM

Given the entry COc1cc(F)cc(CN(C(=O)N2CCc3cc(-c4cn[nH]c4)ccc32)C2CCOCC2)c1 , what IC50 was observed with ROCK2 (Homo sapiens)?
500 to 5000 nM

Given the entry [H][C@]1(c2n[nH]c(=O)c3ccccc32)C[C@]2(C[C@@H](NC(=O)c3ccc4ccccc4n3)C2)C1 (stereo partly shown) , what IC50 was observed with ROCK2 (Homo sapiens)?
15.1 to 100 nM

Given the entry CCc1cc(-n2ncn(Cc3cccc(OC(F)F)c3)c2=O)ccc1-c1cn[nH]c1 , what IC50 was observed with ROCK2 (Homo sapiens)?
50 to 250 nM

###

// cross-source set; read-out = pIC50; system = ROCK2 (Homo sapiens)
pIC50: −log10 of the molar value.

Given the entry COc1cc(CN2CCN(c3ccc(-c4cn[nH]c4)c(OC)n3)C2=O)ccc1F , report its measured pIC50.
> 8.70

Given the entry COc1cc(-n2ncn(Cc3cc(F)cc(F)c3)c2=O)ccc1-c1cn[nH]c1 , report its measured pIC50.
7.30 to 8.30

Given the entry COc1cccc(CN2C(=O)N(c3ccc(-c4cn[nH]c4)cc3)CC23CCN(C(=O)OCC(C)C)CC3)c1 , report its measured pIC50.
> 8.52

###

// cross-source set; read-out = pIC50; system = ROCK2 (Homo sapiens)
pIC50: −log10 of the molar value.

Given the entry O=C1N(c2ccc3c(c2)CCc2n[nH]cc2-3)CCC12Cc1ccccc1N2 (single isomer, unassigned) , report its measured pIC50.
> 8.00

Given the entry COc1cccc(NC2C(=O)N(c3ccc(-c4cn[nH]c4)cc3)CC23CCN(CC(C)(C)O)CC3)c1 (stereo not drawn) , report its measured pIC50.
5.52 to 6.60

Given the entry CCc1cc(-n2ncn(Cc3ccccc3F)c2=O)ccc1-c1cn[nH]c1 , report its measured pIC50.
5.70 to 6.60
